Test: small molecules captured by biotinylated probe aFSTL3 – biochemical, small-molecule microarray, fluorescence 635/667, stem cell growth factor project, primary screen (AID 1064);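 also: measures binding of the biotinylated anti-FSTL3 antibody to printed compounds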
Settings: higher = more signal
attribute-measured: composite z-score

*Q* Quick one: composite z-score for C=CCOC(=O)[C@H]1[C@@H]2C(=O)O[C@@H](c3ccccc3)[C@@H](c3ccccc3)N2[C@@H](c2ccc(OCCOC(=O)[C@H]3C[C@H]4C(=O)N[C@@H](CC(C)C)C(=O)N4[C@H]3c3ccc(O)cc3)cc2)[C@]12C(=O)Nc1ccccc12 ?
*A* -0.109

*Q* Quick one: composite z-score for COC(=O)[C@@]1(Cc2ccc(OC)cc2)[C@H]2c3cc(C(=O)N(C)C)[nH]c3C[C@H]2CN1C(=O)c1ccccc1 ?
*A* -0.231

*Q* Quick one: composite z-score for C=CCN1Cc2ccccc2[C@H]2OC(c3ccc(OCCCO)cc3)=N[C@@]2(CCS(=O)(=O)c2ccccc2)C1=O ?
*A* 1.14

====

Assay: JC-1 mitochondrial signal, unstimulated MM1S myeloma – cell-based, JC-1 fluorescence, 24 h, 100 nL compound, profiling panel (AID 1170); also: test concentration not given here
Details: MM1S mitochondrial potential, higher = more signal
attribute-measured: z-score
Give your answer as a number; write no unit.

*Q* Quick one: z-score for O=C1C[C@]2(c3ccc([N+](=O)[O-])cc3)C(=O)N(C3CC3)c3cc(CO)ccc3[C@H]2N1C1CCCCC1 ?
*A* -0.993

*Q* Quick one: z-score for COCCOC(=O)N1C(=O)[C@@]2(c3cc(C#CCCO)ccc31)[C@H](C(N)=O)[C@H]1C(=O)O[C@H](c3ccccc3)[C@H](c3ccccc3)N1[C@@H]2c1ccccc1OCCO ?
*A* -1.47

*Q* Quick one: z-score for C=C(/C(=C/C[C@@H](OC(C)=O)c1cccc(OCCO)c1)c1cnc2ccccc2c1)C(C)C ?
*A* 0.581

*Q* Quick one: z-score for C=CCC(OC(C)=O)[C@@H]1[C@@H](N(Cc2cc3ccccc3o2)C(=O)Cc2ccc(OC)cc2)c2cc(OCCCO)ccc2N1C(=O)c1ccc2ccccc2n1 (some centres undefined) ?
*A* 0.576

====

So I've got a bunch of molecules here, and I need their z-score values.
Assay: JC-1 mitochondrial signal, unstimulated adipocytes – cell-based, JC-1 fluorescence, 3T3-L1 adipocytes, 24 h, 100 nL compound, profiling panel (AID 1168); also: test concentration not given here
Conditions: JC-1 mitochondrial fluorescence, higher = more signal, called active from +8 up or from −8 down
Give your answer as a number; write no unit.

*Q* Quick one: z-score for CC(C)=CCCC(C)=CC(O)C1C=CC2C(=O)NC(=O)C2N1Nc1ccc(Cl)cc1Cl (stereo not given) ?
*A* -0.947

*Q* Quick one: z-score for C=C(C)[C@@H]1CC=C(C(O)C2C=CC3C(=O)N(c4ccccc4)C(=O)C3N2Nc2ccc([N+](=O)[O-])cc2)CC1 (stereo not given in full) ?
*A* -2.47

*Q* Quick one: z-score for COC(=O)[C@@]1(Cc2ccc(F)cc2)[C@H]2c3cc(C(=O)N(C)C)n(C)c3C[C@H]2CN1C(=O)c1ccccc1 ?
*A* -0.574

*Q* Quick one: z-score for CC1CC/C=C\[C@H]2OC34C=CCN(CCN5CCOCC5)C(=O)[C@H]3N(CCCO)C(=O)[C@@H]4C2C(=O)O1 (stereo not given in full) ?
*A* -0.711

*Q* Quick one: z-score for C=CCC(OC(C)=O)[C@@H]1[C@@H](N(Cc2cccc3ccccc23)C(=O)Cc2ccc(OC)cc2)c2cc(OCCCO)ccc2N1C(=O)c1ccc2ccccc2c1 (stereo not given in full) ?
*A* 0.443

*Q* Quick one: z-score for CCCC[C@H]1OB(O)C[C@H]2C1=C(COc1ccccc1)C[C@H]1C(=O)C=CC(=O)[C@H]12 ?
*A* -0.201

*Q* Quick one: z-score for CCOC(=O)C1=CC[C@@H](c2ccc(OC)cc2)N(S(=O)(=O)c2ccc(C)cc2)[C@H]1c1ccc(C)cc1 ?
*A* -0.717

*Q* Quick one: z-score for COCCCN1C(=O)[C@@]2(c3ccc([N+](=O)[O-])cc3)CC(=O)N(CC34CC5CC(CC(C5)C3)C4)[C@@H]2c2ccc(CO)cc21 ?
*A* 0.0634

*Q* Quick one: z-score for COC(=O)[C@@]1(Cc2ccc(OC)cc2)[C@H]2c3cc(C(=O)N4CCCC4)n(Cc4c(CO)[nH]cc(C)c4=O)c3C[C@H]2CN1C(=O)c1ccccc1 ?
*A* 0.926

*Q* Quick one: z-score for C=CCC(OC(C)=O)[C@@H]1[C@@H](N(Cc2ccc(-c3ccccc3)cc2)C(=O)c2cccc3ccccc23)c2cc(OCCCO)ccc2N1C(=O)Cc1ccc(OC)cc1 (stereo not given in full) ?
*A* -1.63

*Q* Quick one: z-score for CC(C)=CCCC=C(C)C(O)C1C=CC2C(=O)N(c3ccccc3)C(=O)C2N1Nc1ccc(C#N)cc1 (stereo not given) ?
*A* -0.926

*Q* Quick one: z-score for O=C1OCCC=C[C@H]2OC34C=CCN(c5ccc6ccccc6c5)C(=O)[C@H]3N(CCO)C(=O)[C@@H]4C12 (stereo not given in full) ?
*A* -0.502

*Q* Quick one: z-score for C=CC[C@]1(C(=O)NCC(O)CO)COC(c2ccc(OCCCO)cc2)=N1 (stereo not given in full) ?
*A* -0.604

*Q* Quick one: z-score for CCOC(=O)C1=CCC(c2cc3ccccc3[nH]2)N(CCN2CC(C(=O)OCC)=CCC2c2cc3ccccc3[nH]2)C1 (stereo not given) ?
*A* -0.73

*Q* Quick one: z-score for CCOC(=O)C[C@H]1[C@H](OC(=O)c2cc3ccccc3oc2=O)[C@@H](NC(=O)CC(C)C)c2cc(OCCCO)ccc2N1C(=O)Cc1ccc(OC)cc1 ?
*A* -0.119

====

So I've got a bunch of compounds here, and I need their z-score values.
Test: plasmodial surface anion channel blockers, osmotic lysis – cell-based, P. falciparum Indochina, OD700, 18 h, primary screen (AID 1157)
Conditions: P. falciparum Indochina infected erythrocytes, osmotic lysis OD700, 18 h; higher = more signal, called active from +8 up or from −8 down
Give your answer as a number; write no unit.

*Q* Quick one: z-score for CCCCN1CC=CC23O[C@@H]4/C=C\CCCOC(=O)C4[C@H]2C(=O)N(C(CO)C(C)C)[C@@H]3C1=O (some centres not stated) ?
*A* 0.505

*Q* Quick one: z-score for C=C(C)[C@@H]1CC=C(C(O)C2C=CC3C(=O)N(C)C(=O)C3N2Nc2ccc([N+](=O)[O-])cc2[N+](=O)[O-])CC1 (some centres not stated) ?
*A* 1.46

*Q* Quick one: z-score for CN(C)c1ccc(C(O)C2C=CC3C(=O)N(Cc4ccccc4)C(=O)C3N2n2cnnc2)cc1 (configuration not stated) ?
*A* -0.553

*Q* Quick one: z-score for CC1CC/C=C\[C@H]2OC34C=CCN(C(C)(C)C)C(=O)[C@H]3N(CCCO)C(=O)[C@@H]4C2C(=O)O1 (some centres not stated) ?
*A* 0.235

*Q* Quick one: z-score for C=CCN1C(=O)[C@]2(O[C@H](CCn3cc([C@H](O)c4ccccc4)nn3)[C@@H]([Si](C)(C)c3ccc(OC)cc3)[C@@H]2C)c2cc(NC(=O)c3ccc(OC)cc3)ccc21 ?
*A* 1.18

*Q* Quick one: z-score for O=C1C[C@@](C(=O)NC2CC2)(c2ccc([N+](=O)[O-])cc2)[C@@H](c2ccc(CO)cc2)N1C1CCCCC1 ?
*A* -0.115

*Q* Quick one: z-score for C=C(CCCC)/C(=C/C[C@H](OC(C)=O)c1cccc(OCCO)c1)c1cnc2ccccc2c1 ?
*A* 1.34

====

Biological target: Luciferin 4-monooxygenase (Photinus pyralis) (UniProt P08659)
Sequence (P08659 whole entry, looked up): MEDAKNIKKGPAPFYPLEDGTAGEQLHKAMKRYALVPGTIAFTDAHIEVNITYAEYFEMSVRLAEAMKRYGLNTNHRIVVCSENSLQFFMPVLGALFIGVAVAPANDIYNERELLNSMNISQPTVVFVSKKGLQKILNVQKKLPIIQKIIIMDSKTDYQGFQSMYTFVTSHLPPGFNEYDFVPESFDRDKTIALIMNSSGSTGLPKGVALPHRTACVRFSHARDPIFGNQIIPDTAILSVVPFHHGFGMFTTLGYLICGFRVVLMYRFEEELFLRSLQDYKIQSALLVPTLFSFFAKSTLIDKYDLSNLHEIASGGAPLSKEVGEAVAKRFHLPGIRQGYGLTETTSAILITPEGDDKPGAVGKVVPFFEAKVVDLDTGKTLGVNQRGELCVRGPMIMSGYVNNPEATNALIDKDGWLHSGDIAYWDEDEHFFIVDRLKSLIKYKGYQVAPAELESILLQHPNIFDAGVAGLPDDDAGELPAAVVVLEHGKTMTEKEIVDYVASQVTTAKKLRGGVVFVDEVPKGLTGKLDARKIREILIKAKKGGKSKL
Assay: inhibition of purified Photinus pyralis luciferase – biochemical, luminescence, purified enzyme, 2006 set, primary screen (AID 1141);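 also: cell-free assay with purified firefly luciferase at 100 ng per well in PBS; test concentration not given here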
Settings: purified firefly luciferase, SteadyGlo luminescence, 30 min; higher = more signal, called active from +8 up or from −8 down
Definition: the class of an entry is the range in one = under -1, two = from -1 up to 0.6, three = 0.6 and over that contains its z-score.

*Q* Which class is correct for the following compound? C=CCNC(=O)[C@H]1[C@@H]2C(=O)O[C@@H](c3ccccc3)[C@@H](c3ccccc3)N2[C@@H](c2ccc(OCCO)cc2)[C@]12C(=O)Nc1ccc(C#CC3(O)CCCCCC3)cc12
*A* one

*Q* Which class is correct for the following compound? C=CCN1C(=O)[C@]2(O[C@H](CCn3cc([C@H](O)c4ccccc4)nn3)[C@@H]([Si](C)(C)c3ccc(OC)cc3)[C@@H]2C)c2cc(NC(=O)c3ccc(OC)cc3)ccc21
*A* one

*Q* Which class is correct for the following compound? COCCOC(=O)N1C(=O)[C@@]2(c3cc(C#CCNC(N)=O)ccc31)[C@H](C(=O)Nc1nc3ccccc3s1)[C@H]1C(=O)O[C@H](c3ccccc3)[C@H](c3ccccc3)N1[C@@H]2c1ccccc1OCCO
*A* one

*Q* Which class is correct for the following compound? CC(C)=CCCC(C)=CC(O)C1C=CC2C(=O)NC(=O)C2N1Nc1ccccn1 (centres undefined)
*A* one

*Q* Which class is correct for the following compound? C=C(/C(=C/C[C@@H](OC(C)=O)c1cccc(OCCO)c1)c1cnc2ccccc2c1)C(C)C
*A* two

*Q* Which class is correct for the following compound? COC(=O)[C@@]1(Cc2ccc(F)cc2)[C@H]2c3cc(C(=O)N(C)C)n(CCc4ccc(O)c(O)c4)c3C[C@H]2CN1C(=O)c1ccccc1
*A* two

*Q* Which class is correct for the following compound? COCCCNC(=O)[C@@H]1c2ccccc2C(=O)N(Cc2ccc(OC(F)(F)F)cc2)[C@H]1c1ccc(CO)cc1
*A* two

*Q* Which class is correct for the following compound? CC(C)NC(=O)[C@@H]1c2ccccc2C(=O)N(Cc2ccccc2C(F)(F)F)[C@H]1c1ccc(CO)cc1
*A* three

*Q* Which class is correct for the following compound? CC(C)(C)N1CC=CC23O[C@@H]4/C=C\CCCOC(=O)C4[C@H]2C(=O)N(CCCO)[C@@H]3C1=O (some centres undefined)
*A* two

*Q* Which class is correct for the following compound? C=C(CCCC)/C(=C/C[C@H](OC(C)=O)c1cccc(OCCO)c1)c1cnc2ccccc2c1
*A* one

*Q* Which class is correct for the following compound? C[N+](C)(C)CCCC[C@@H]1NC(=O)[C@H]2C[C@@H](C(=O)NCCCCCNC(=O)CS)[C@@H](c3cccc(OCCO)c3)N2C1=O
*A* one

*Q* Which class is correct for the following compound? COC(=O)[C@@]1(Cc2ccc(OC)cc2)[C@H]2c3cc(C(=O)N4CCCC4)n(Cc4c(CO)[nH]cc(C)c4=O)c3C[C@H]2CN1C(=O)c1ccccc1
*A* three

*Q* Which class is correct for the following compound? CN1C(=O)C2C=CC(C(O)c3ccc(-c4ccccc4)s3)N(NC(=O)OC(C)(C)C)C2C1=O (centres undefined)
*A* three

*Q* Which class is correct for the following compound? COC(=O)[C@@]1(Cc2ccc(OC)cc2)[C@H]2c3cc(C(=O)N4CCCC4)n(Cc4ccc(C(F)(F)F)nc4)c3C[C@H]2CN1C(=O)c1ccccc1
*A* one
